The origin of these recorded values is the supplement of paper PMC10126150.

system: ATP; test: switch fluorescence ratio, 500 uM ATP over buffer (Cy3 cluster intensity, sum of 5 cycles each) (fold (ratio)); higher = stronger signal-on switching upon ATP binding; sequences stand for … in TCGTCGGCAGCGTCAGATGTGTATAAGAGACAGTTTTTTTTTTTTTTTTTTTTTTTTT…TC; details: aptamer strand: ATP DNA aptamer (quencher-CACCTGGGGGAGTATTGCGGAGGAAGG + anchor), 100 nM annealed; ATP concentration: 500 uM;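 further: ATP exposure 15 min at 22 °C before imaging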
# switch fluorescence ratio per entry
Number, no unit, nothing else.

- constructSequence: "TTCAATTGGT"
  switch fluorescence ratio: 0.974
- constructSequence: "CGAAAGCAGG"
  switch fluorescence ratio: 1.17
- constructSequence: "ACAGTAGTAG"
  switch fluorescence ratio: 1.07
- constructSequence: "TTTGTAGGGG"
  switch fluorescence ratio: 0.981
- constructSequence: "CGTTTGATGC"
  switch fluorescence ratio: 1.02
- constructSequence: "TTTTTGGTCC"
  switch fluorescence ratio: 0.992
- constructSequence: "AAGGGCTCAA"
  switch fluorescence ratio: 1.02
- constructSequence: "TGATCAGGAG"
  switch fluorescence ratio: 0.985

Query the reported switch fluorescence ratio for ATP; item: GCACGGGACT 1.18

Likewise for AGGAAGTCTT ? 0.941

Likewise for TAGGAGGTTC ? 0.988

Likewise for TTGTCCAAAT ? 0.986

Likewise for GGTTTAATGG ? 1.01

Likewise for TAAGGCCGGG ? 0.981

Likewise for CGGGGGTCTT ? 1

Likewise for CAAAAAACGA ? 0.999

Likewise for ATGAGGGTCT ? 0.999

Likewise for TTGTGTTGG ? 1.03

Likewise for AGGGGGTACA ? 1.01

Likewise for TGTCGTCGGG ? 0.995

Likewise for TTTTGACGCG ? 1.06

Likewise for GGGGTGCTAT ? 1.01

Likewise for GGTAATAGAG ? 0.987

Likewise for CCATGGAGTA ? 1

Likewise for TCCAAAATGG ? 1.09

Likewise for TGTGGTTGCG ? 1.01

Likewise for TTTTGAGGTG ? 1.06

Likewise for TTATGGCATC ? 0.974

Likewise for GGGGGGCCCG ? 1.35

Likewise for ACCAGTAGGT ? 1.01
